System: IL-1β
Test: PBMC assay: inhibition of IL-1β release after LPS stimulation (MSD)
Type: cell-based
Conditions: Homo sapiens, PBMC, 6 h, human PBMCs, 100 ng/ml LPS for 6 hrs, MSD, 96 well plates; read-out: IL1β IC50
pIC50: −log10 of the molar value.
endpoint_label: pIC50

Some molecules with recorded pIC50:
molecule	pIC50
COC(C)c1nn(CC(=O)Nc2ccc3nncn3c2)c(=O)c2ccc(Br)cc12 (stereo not drawn)	6.30
CC(C)c1nn(CC(=O)Nc2ccc(=O)n(C)n2)c(=O)c2ccc(C(F)(F)F)cc12	6.60
CC(C)c1nn(CC(=O)Nc2ccc3nncn3c2)c(=O)c2ccc(C(C)(C)F)cc12	7.48
Cc1nnc2n1CC(NC(=O)Cn1nc(C(C)C)c3cc(C(F)(F)F)ccc3c1=O)CC2 (stereo not drawn)	6.14
CC(C)c1nn(CC(=O)Nc2ncnc3c2ncn3C)c(=O)c2ccc(C(F)(F)F)cc12	6.13
CC(C)c1nn(CC(=O)N[C@@H]2C[C@H](O)CN(C)C2)c(=O)c2ccc(C(F)(F)F)cc12 (single isomer, unassigned)	5.51

I: CC(C)c1nn(CC(=O)N[C@H]2C[C@@](C)(O)C2)c(=O)c2ccc(C(F)(F)F)c(F)c12
II: COC(C)c1nn(CC(=O)Nc2ccnnc2)c(=O)c2ccc(Br)cc12 (stereo not drawn)
Ask | Form: Entry with minimum pIC50 (choose one): I / II State your choice using its label.
Reply | II

a: O=C(Cn1nc(C2CC2)c2cc(C(F)(F)F)ccc2c1=O)N[C@H]1CN(C2CC2)CC[C@H]1O
b: CC(C)c1nn(CC(=O)Nc2ccc3nncn3n2)c(=O)c2c(O)cc(C(F)(F)F)cc12
Ask | Lab notebook, comparison: a versus b , higher pIC50 goes to which? Answer by quoting the chosen item's label.
Reply | a
(a: 6.42, b: 6.05)

a: CC(C)c1nn(CC(=O)Nc2ccc3nc(C#N)cn3c2)c(=O)c2ccc(C(F)(F)F)cc12
b: C[C@]1(O)C[C@@H](NC(=O)Cn2nc(C3CC3)c3cc(C(F)(F)F)ccc3c2=O)C1
Ask | // which entry reports the smaller pIC50, a or b ? // output: label of the selected item
Reply | a

Hey, just so you know, these numbers are from patent US20230202989A1.
